target_desc: glucose-6-phosphate dehydrogenase-6-phosphogluconolactonase (Plasmodium falciparum 3D7)
test_summary: PfG6PD enzyme inhibitors, kinetic NADPH readout, dose response, orthogonal assay, biochemical, kinetic NADPH detection (AID 540269)
measurement_setup: purified PfG6PD-6PGL
Calls of active or inactive are those of the source. How the calls were made is not given here.
Labels: 1 (active), -1 (inactive)

line_notation: CCn1c(N)c(C(=O)NC)sc1=S
label_class: 1
//
line_notation: COc1c2ccoc2c(OCC=C(C)C)c2oc(=O)ccc12
label_class: -1
//
line_notation: Cc1ccc(S(=O)(=O)/N=C2/C=C(C3C(=O)CC(C)(C)CC3=O)C(=O)c3ccccc32)cc1
label_class: -1
//
line_notation: O=C(O)c1ccccc1NS(=O)(=O)c1cccc(-n2sc3ccccc3c2=O)c1
label_class: 1
//
line_notation: C[C@H](NC(=O)c1cc2c(cn1)[nH]c1ccccc12)C(=O)O
label_class: -1
//
line_notation: O=C1C=CC(=O)N1CCNc1ncc(C(F)(F)F)cc1Cl
label_class: 1

* * *

Entries and their IC50 values follow.
target_desc: glucose-6-phosphate dehydrogenase-6-phosphogluconolactonase (Plasmodium falciparum 3D7)
test_summary: PfG6PD enzyme inhibitors, kinetic NADPH readout, dose response, orthogonal assay, biochemical, kinetic NADPH detection (AID 540269)
measurement_setup: purified PfG6PD-6PGL
The source made the active and inactive calls. How the calls were made is not given here.
value_kind: IC50

compound: CC1=CC(C)(C)Nc2ccc(OC(=O)CN3C(=O)c4cccc5cccc(c45)C3=O)cc21
target_desc: glucose-6-phosphate dehydrogenase-6-phosphogluconolactonase (Plasmodium falciparum 3D7)
value_kind: IC50
result: 76.9 µM
//
compound: Cc1cccc(-n2c(=S)[nH]c3sc4c(c3c2=O)CCc2ccccc2-4)c1
target_desc: glucose-6-phosphate dehydrogenase-6-phosphogluconolactonase (Plasmodium falciparum 3D7)
value_kind: IC50
result: 40.9 µM
//
compound: COc1cc(N)c2ncccc2c1OC
target_desc: glucose-6-phosphate dehydrogenase-6-phosphogluconolactonase (Plasmodium falciparum 3D7)
value_kind: IC50
result: > 80 µM (inactive)
//
compound: CC1(C)Nc2ccc(O)cc2-c2c1ssc2=S
target_desc: glucose-6-phosphate dehydrogenase-6-phosphogluconolactonase (Plasmodium falciparum 3D7)
value_kind: IC50
result: > 80 µM (inactive)
//
compound: CC(=O)Nc1cc2c(cc1[N+](=O)[O-])-c1ccccc1C2O (stereo unspecified)
target_desc: glucose-6-phosphate dehydrogenase-6-phosphogluconolactonase (Plasmodium falciparum 3D7)
value_kind: IC50
result: > 80 µM (inactive)
//
compound: COc1ccc(S(=O)(=O)/N=C2\C=C(Nc3ccc(O)cc3)C(=O)c3ccccc32)cc1
target_desc: glucose-6-phosphate dehydrogenase-6-phosphogluconolactonase (Plasmodium falciparum 3D7)
value_kind: IC50
result: > 80 µM (inactive)

* * *

target_desc: glucose-6-phosphate dehydrogenase-6-phosphogluconolactonase (Plasmodium falciparum 3D7)
test_summary: PfG6PD enzyme inhibitors, kinetic NADPH readout, dose response, orthogonal assay, biochemical, kinetic NADPH detection (AID 540269)
measurement_setup: purified PfG6PD-6PGL
The source made the active and inactive calls. How the calls were made is not given here.
Outcome codes: active, inactive

molecule: Nc1c(O)cccc1C(=O)O
target_desc: glucose-6-phosphate dehydrogenase-6-phosphogluconolactonase (Plasmodium falciparum 3D7)
label_class: active
--
molecule: Cc1nc(COC(=O)c2cc(O)c3ccccc3c2O)cs1
target_desc: glucose-6-phosphate dehydrogenase-6-phosphogluconolactonase (Plasmodium falciparum 3D7)
label_class: inactive
--
molecule: O=c1c2cc(F)ccc2sn1-c1ccccc1Cl
target_desc: glucose-6-phosphate dehydrogenase-6-phosphogluconolactonase (Plasmodium falciparum 3D7)
label_class: active
--
molecule: COC1(OC)C=CC(=O)C=C1NC(=O)c1ccccc1OC(C)=O
target_desc: glucose-6-phosphate dehydrogenase-6-phosphogluconolactonase (Plasmodium falciparum 3D7)
label_class: inactive
--
molecule: O=c1c2cc(F)ccc2sn1-c1ccc(F)cc1
target_desc: glucose-6-phosphate dehydrogenase-6-phosphogluconolactonase (Plasmodium falciparum 3D7)
label_class: active
--
molecule: O=[N+]([O-])c1c(NCCCO)cc(Sc2nc3ccccc3s2)c2nonc12
target_desc: glucose-6-phosphate dehydrogenase-6-phosphogluconolactonase (Plasmodium falciparum 3D7)
label_class: active
--
molecule: CN(C)Cc1cc(O)c(CN(C)C)cc1O
target_desc: glucose-6-phosphate dehydrogenase-6-phosphogluconolactonase (Plasmodium falciparum 3D7)
label_class: active
--
molecule: CCCCC1C(=O)N(c2ccccc2)N(c2ccc(O)cc2)C1=O (stereo unspecified)
target_desc: glucose-6-phosphate dehydrogenase-6-phosphogluconolactonase (Plasmodium falciparum 3D7)
label_class: inactive
--
molecule: Cc1cc(C)nc(NC(N)=NCCc2ccccc2)n1
target_desc: glucose-6-phosphate dehydrogenase-6-phosphogluconolactonase (Plasmodium falciparum 3D7)
label_class: inactive
--
molecule: Cc1c(C(=O)N(Cc2ccccc2Cl)C2CCS(=O)(=O)C2)oc2ccccc12 (stereo unspecified)
target_desc: glucose-6-phosphate dehydrogenase-6-phosphogluconolactonase (Plasmodium falciparum 3D7)
label_class: inactive
--
molecule: Cc1cc(C)c2c(=O)n(CC(=O)Nc3cccc(F)c3)sc2n1
target_desc: glucose-6-phosphate dehydrogenase-6-phosphogluconolactonase (Plasmodium falciparum 3D7)
label_class: active
